The reported measurements were obtained from the Immune Epitope Database (IEDB).

experimental_target: HLA-A*68:01
assay: IEDB peptide-MHC binding, purified MHC/competitive/radioactivity; filed as Kd, often an IC50 or EC50 that approximates it; bounds were set here for any values at or beyond the usual limits of such assays
condition_details: source organism: Mammarenavirus brazilense
parameter_measured: Kd (µM)
Numbers only, in µM.

# residue_string, quantity_unit, Kd
data = [
    ("MVNHSTYYV", "µM", 0.0948),
]

Now look at this one.
Which Kd is reported for this sequence? `SVTLDFTKFH` 18.4

* * *

experimental_target: HLA-A*11:01
assay: IEDB peptide-MHC binding, purified MHC/competitive/radioactivity; filed as Kd, often an IC50 or EC50 that approximates it; bounds were set here for any values at or beyond the usual limits of such assays
condition_details: source organism: Mammarenavirus machupoense
Please go through the items and note down their pKd.
Answers are plain numbers, as −log10 of the molar value.

# residue_string, pKd
measured = [
    ("LTMQRLLANH", 5.73),
]

Which pKd is reported for this sequence? `EWIEFTNFK` 5.48

* * *

experimental_target: HLA-B*18:01
assay: IEDB peptide-MHC binding, purified MHC/competitive/fluorescence; filed as Kd, often an IC50 or EC50 that approximates it; bounds were set here for any values at or beyond the usual limits of such assays
condition_details: source organism: Bacillus anthracis str. A0488
parameter_measured: Kd

What value of Kd on HLA-B*18:01 does `FVMPIFEQI` have? ≥ 20 µM

* * *

experimental_target: HLA-A*02:01
assay: IEDB peptide-MHC binding, purified MHC/direct/fluorescence; filed as Kd, often an IC50 or EC50 that approximates it; bounds were set here for any values at or beyond the usual limits of such assays
condition_details: source organism: Rickettsia conorii
Please go through the items and note down their Kd.
Answers are plain numbers, in nM.

# residue_string, experimental_target, Kd, nM
measured = [
    ("YFSDVSAPV", "HLA-A*02:01", 27.9),
]

Which Kd is reported for this sequence? `DLAAGVDVV` 3240

* * *

experimental_target: HLA-A*02:01
assay: IEDB peptide-MHC binding, purified MHC/competitive/radioactivity; bounds were set here for any values at or beyond the usual limits of such assays
condition_details: source organism: Rift Valley fever virus
parameter_measured: IC50 (nM)
One number for each entry, in nM.

Which IC50 is reported for this sequence? `VLSEWLPVT` 15

* * *

experimental_target: HLA-B*27:03
assay: IEDB peptide-MHC binding, purified MHC/direct/fluorescence; filed as Kd, often an IC50 or EC50 that approximates it; bounds were set here for any values at or beyond the usual limits of such assays
condition_details: source organism: Yersinia pestis CA88-4125
parameter_measured: Kd

Which Kd is reported for this sequence? `KLLARFLFE` ≥ 20 µM

* * *

experimental_target: HLA-B*27:05
assay: IEDB peptide-MHC binding, purified MHC/direct/fluorescence; filed as Kd, often an IC50 or EC50 that approximates it; bounds were set here for any values at or beyond the usual limits of such assays
condition_details: source organism: Giardia lamblia ATCC 50803
pKd: −log10 of the molar value.
Please go through the items and note down their pKd.

# residue_string, val
records = [
    ("RIGGVLIFR", "≤ 5.30"),
]

Now look at this one.
Which pKd is reported for this sequence? `LLPYPIAGC` ≤ 4.70

* * *

experimental_target: HLA-B*45:06
assay: IEDB peptide-MHC binding, purified MHC/competitive/fluorescence; filed as Kd, often an IC50 or EC50 that approximates it; bounds were set here for any values at or beyond the usual limits of such assays
condition_details: source organism: Francisella tularensis subsp. tularensis FSC198
parameter_measured: Kd

Which Kd is reported for this sequence? `MGAGLVFPI` ≥ 5 µM

* * *

experimental_target: HLA-A*11:01
assay: IEDB peptide-MHC binding, purified MHC/competitive/fluorescence; filed as Kd, often an IC50 or EC50 that approximates it; bounds were set here for any values at or beyond the usual limits of such assays
condition_details: source organism: Human immunodeficiency virus 1
parameter_measured: Kd (nM)
Answers are plain numbers, in nM.

Which Kd is reported for this sequence? `KSLFNTVATLY` 233

* * *

experimental_target: HLA-B*57:01
assay: IEDB peptide-MHC binding, purified MHC/direct/fluorescence; filed as Kd, often an IC50 or EC50 that approximates it; bounds were set here for any values at or beyond the usual limits of such assays
condition_details: source organism: Buffalopox virus
parameter_measured: Kd

Which Kd is reported for this sequence? `IHSDQLSKF` ≥ 20 µM

* * *

experimental_target: HLA-B*48:01
assay: IEDB peptide-MHC binding, purified MHC/direct/fluorescence; filed as Kd, often an IC50 or EC50 that approximates it; bounds were set here for any values at or beyond the usual limits of such assays
condition_details: source organism: West Nile virus
parameter_measured: Kd

Which Kd is reported for this sequence? `RRWCFDGPR` ≥ 20 µM

* * *

experimental_target: HLA-A*02:16
assay: IEDB peptide-MHC binding, purified MHC/direct/fluorescence; filed as Kd, often an IC50 or EC50 that approximates it; bounds were set here for any values at or beyond the usual limits of such assays
condition_details: source organism: Yersinia enterocolitica subsp. enterocolitica 8081
parameter_measured: Kd

Which Kd is reported for this sequence? `LAYLAGWII` ≥ 20 µM

* * *

experimental_target: HLA-B*15:02
assay: IEDB peptide-MHC binding, purified MHC/direct/fluorescence; filed as Kd, often an IC50 or EC50 that approximates it; bounds were set here for any values at or beyond the usual limits of such assays
condition_details: source organism: Vibrio vulnificus
pKd: −log10 of the molar value.
parameter_measured: pKd

Which pKd is reported for this sequence? `IQTHCEVGY` ≤ 4.70

* * *

experimental_target: HLA-A*02:01
assay: IEDB peptide-MHC binding, purified MHC/direct/fluorescence; filed as Kd, often an IC50 or EC50 that approximates it; bounds were set here for any values at or beyond the usual limits of such assays
condition_details: source organism: Influenza A virus (A/swine/Chiai/77-10/2001(H3N1))
parameter_measured: Kd

What value of Kd on HLA-A*02:01 does `VSFDQNLDY` have? ≥ 20 µM

* * *

experimental_target: HLA-A*11:01
assay: IEDB peptide-MHC binding, purified MHC/competitive/radioactivity; filed as Kd, often an IC50 or EC50 that approximates it; bounds were set here for any values at or beyond the usual limits of such assays
condition_details: source organism: Mammarenavirus lassaense
parameter_measured: pKd
Give bare numbers, as −log10 of the molar value.

What value of pKd on HLA-A*11:01 does `QCWRSFLNK` have? 5.31

* * *

Please go through the items and note down their Kd.
experimental_target: HLA-A*02:02
assay: IEDB peptide-MHC binding, purified MHC/competitive/radioactivity; filed as Kd, often an IC50 or EC50 that approximates it; bounds were set here for any values at or beyond the usual limits of such assays
condition_details: source organism: SARS coronavirus Tor2
Answers are plain numbers, in nM.

Look over these answered cases.
# residue_string, quantity_unit, Kd
records = [
    ("LIVNSVLLFL", "nM", 3.67),
    ("AIILASFSA", "nM", 201),
    ("HAFLCLFLL", "nM", 20.7),
    ("FLVLIMLII", "nM", 1630),
    ("KLMGHFSWWT", "nM", 64.4),
]

For the 3 sequences below, give their Kd values.
1. YLMCLSPLM
2. AMWLLLLSI
3. FTLLFQLCT

0.137
357
1100

* * *

experimental_target: HLA-B*44:02
assay: IEDB peptide-MHC binding, purified MHC/competitive/radioactivity; filed as Kd, often an IC50 or EC50 that approximates it; bounds were set here for any values at or beyond the usual limits of such assays
condition_details: source organism: Mammarenavirus tacaribeense
parameter_measured: pKd
Numbers only, as −log10 of the molar value.

Which pKd is reported for this sequence? `EEVPTLIKTL` 5.07

* * *

experimental_target: HLA-B*40:02
assay: IEDB peptide-MHC binding, purified MHC/competitive/radioactivity; filed as Kd, often an IC50 or EC50 that approximates it; bounds were set here for any values at or beyond the usual limits of such assays
condition_details: source organism: Mammarenavirus lassaense
parameter_measured: Kd (nM)
One number for each entry, in nM.

Which Kd is reported for this sequence? `DEILLDGGAS` 902

* * *

experimental_target: HLA-B*18:01
assay: IEDB peptide-MHC binding, purified MHC/competitive/fluorescence; filed as Kd, often an IC50 or EC50 that approximates it; bounds were set here for any values at or beyond the usual limits of such assays
condition_details: source organism: Zaire ebolavirus
Please go through the items and note down their Kd.

Look over these answered cases.
# residue_string, experimental_target, Kd
records = [
    ("DRLASTVIY", "HLA-B*18:01", "≥ 20 µM"),
    ("GIVSSMHYK", "HLA-B*18:01", "≥ 20 µM"),
]

What value of Kd on HLA-B*18:01 does `AENCYNLEI` have? ≥ 20 µM
